target under test: Pdr3 (UniProt P33200)
Sequence: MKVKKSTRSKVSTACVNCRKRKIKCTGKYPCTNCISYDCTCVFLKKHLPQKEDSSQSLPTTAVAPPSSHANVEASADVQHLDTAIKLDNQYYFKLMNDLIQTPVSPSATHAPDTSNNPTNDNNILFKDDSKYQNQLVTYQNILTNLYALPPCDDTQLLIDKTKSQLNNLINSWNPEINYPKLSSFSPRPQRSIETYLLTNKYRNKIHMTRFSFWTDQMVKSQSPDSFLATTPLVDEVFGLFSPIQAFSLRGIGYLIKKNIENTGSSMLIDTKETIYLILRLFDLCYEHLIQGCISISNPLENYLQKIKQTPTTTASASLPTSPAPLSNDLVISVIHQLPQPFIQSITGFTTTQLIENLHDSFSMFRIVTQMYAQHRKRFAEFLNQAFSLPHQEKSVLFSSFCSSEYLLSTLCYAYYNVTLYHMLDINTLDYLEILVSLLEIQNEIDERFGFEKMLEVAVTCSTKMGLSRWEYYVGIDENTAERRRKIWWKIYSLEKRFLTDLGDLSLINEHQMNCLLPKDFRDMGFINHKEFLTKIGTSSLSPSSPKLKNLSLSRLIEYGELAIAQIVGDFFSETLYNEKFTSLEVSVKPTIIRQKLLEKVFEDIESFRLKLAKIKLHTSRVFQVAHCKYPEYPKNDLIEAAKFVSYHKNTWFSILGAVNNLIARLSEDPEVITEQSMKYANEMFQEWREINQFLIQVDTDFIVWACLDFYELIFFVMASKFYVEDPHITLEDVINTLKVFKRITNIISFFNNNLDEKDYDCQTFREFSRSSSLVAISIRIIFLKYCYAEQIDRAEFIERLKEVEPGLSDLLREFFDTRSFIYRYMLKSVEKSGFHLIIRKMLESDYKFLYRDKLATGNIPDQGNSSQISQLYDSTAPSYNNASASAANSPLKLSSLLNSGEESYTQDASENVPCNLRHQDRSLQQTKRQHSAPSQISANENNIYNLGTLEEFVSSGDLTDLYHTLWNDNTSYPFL
protocol details: PBM E-score (8-mer binding enrichment) (E-score (-0.5 to 0.5)); higher = stronger / more preferred TF binding
experimental conditions: protein concentration: 200 nM; construct: GST-full length
The full ranking holds about 33,000 sequences; the median of “E-score (-0.5 to 0.5)” is about -0.035, and the highest 2% start at about 0.35. The sample as a whole holds a higher share of the highest values than the screen did.
Kindly return satisfied if reported PBM E-score is no lower than 0.05; return not satisfied if it is lower.

ACTGAGCG | not satisfied

# ---- query sequence ----
# check: PBM E-score of `CTTCGACC` is greater than or equal to 0.05
satisfied

All values here come from the supplement of paper PMC3334620.
